Target: T1, CEACAM1 antigen (Sino Biological, Inc.) (UniProt P13688 35-428)
T1 construct: Bought antigen coated on the ELISA plate; construct not described; also called CEACAM1 (CD66a) antigen; CD66a
T1 sequence (looked up): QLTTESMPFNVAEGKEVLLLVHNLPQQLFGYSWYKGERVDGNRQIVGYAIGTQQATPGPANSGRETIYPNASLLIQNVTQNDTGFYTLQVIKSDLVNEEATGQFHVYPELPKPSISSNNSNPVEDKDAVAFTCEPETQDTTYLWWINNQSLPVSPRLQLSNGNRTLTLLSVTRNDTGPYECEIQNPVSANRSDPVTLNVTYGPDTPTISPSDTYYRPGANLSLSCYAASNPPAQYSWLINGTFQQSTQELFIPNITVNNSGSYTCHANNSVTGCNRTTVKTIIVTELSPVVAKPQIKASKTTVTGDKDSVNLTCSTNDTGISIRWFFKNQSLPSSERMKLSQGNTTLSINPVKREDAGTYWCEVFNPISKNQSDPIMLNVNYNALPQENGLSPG
Experiment: ELISA, coated CEACAM1 100 ng/well, antibody 0.51 ng/ml
Listing: OD 450 nm of selected binders
Give the number; OD is assumed, so skip it.

// solved cases for OD 450 nm follow
recombinant humanized anti-CD66c antibody Protein ID 3058 (Vk8 + VH11) (antibody, human IgG1, V domains shown, also called hu 3058; #86) VH: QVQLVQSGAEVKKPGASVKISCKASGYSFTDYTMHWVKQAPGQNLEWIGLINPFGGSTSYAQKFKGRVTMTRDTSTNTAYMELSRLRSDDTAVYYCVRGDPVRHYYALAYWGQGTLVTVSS VL: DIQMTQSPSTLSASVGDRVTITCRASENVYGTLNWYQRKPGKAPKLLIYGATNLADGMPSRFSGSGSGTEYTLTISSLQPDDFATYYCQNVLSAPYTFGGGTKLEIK; 0.04
recombinant humanized anti-CD66c antibody Protein ID 3043 (Vk8 + VH6) (antibody, human IgG1, V domains shown, also called hu 3043; #71) VH: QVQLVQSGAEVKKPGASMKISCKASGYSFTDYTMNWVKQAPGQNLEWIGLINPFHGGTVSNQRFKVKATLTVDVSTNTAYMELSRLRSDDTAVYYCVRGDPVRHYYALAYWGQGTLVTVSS VL: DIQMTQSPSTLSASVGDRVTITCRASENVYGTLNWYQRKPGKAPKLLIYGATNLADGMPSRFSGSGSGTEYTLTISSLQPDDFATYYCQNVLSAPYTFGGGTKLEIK; 0.1

Lab note: next binder to report on.
Q: // fetch OD 450 nm given entry recombinant humanized anti-CD66c antibody Protein ID 3007 (Vk7 + VH6) (antibody, human IgG1, V domains shown, also called hu 3007; #43) VH: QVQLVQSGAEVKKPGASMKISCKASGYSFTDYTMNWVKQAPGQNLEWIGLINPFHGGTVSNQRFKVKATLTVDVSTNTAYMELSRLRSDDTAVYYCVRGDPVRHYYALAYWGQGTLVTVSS VL: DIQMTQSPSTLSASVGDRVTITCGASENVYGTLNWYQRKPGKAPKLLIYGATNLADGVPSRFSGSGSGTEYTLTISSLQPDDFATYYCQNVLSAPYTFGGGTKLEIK
Ans: 0.11
